Recorded values, source patent US8778929B2.

Each entry below carries its reported remaining activity at 2 µM.
Molecular target: B-Raf (V600E)-kinase (Homo sapiens, UniProt P15056, V600E)
Sequence (P15056 whole entry V600E): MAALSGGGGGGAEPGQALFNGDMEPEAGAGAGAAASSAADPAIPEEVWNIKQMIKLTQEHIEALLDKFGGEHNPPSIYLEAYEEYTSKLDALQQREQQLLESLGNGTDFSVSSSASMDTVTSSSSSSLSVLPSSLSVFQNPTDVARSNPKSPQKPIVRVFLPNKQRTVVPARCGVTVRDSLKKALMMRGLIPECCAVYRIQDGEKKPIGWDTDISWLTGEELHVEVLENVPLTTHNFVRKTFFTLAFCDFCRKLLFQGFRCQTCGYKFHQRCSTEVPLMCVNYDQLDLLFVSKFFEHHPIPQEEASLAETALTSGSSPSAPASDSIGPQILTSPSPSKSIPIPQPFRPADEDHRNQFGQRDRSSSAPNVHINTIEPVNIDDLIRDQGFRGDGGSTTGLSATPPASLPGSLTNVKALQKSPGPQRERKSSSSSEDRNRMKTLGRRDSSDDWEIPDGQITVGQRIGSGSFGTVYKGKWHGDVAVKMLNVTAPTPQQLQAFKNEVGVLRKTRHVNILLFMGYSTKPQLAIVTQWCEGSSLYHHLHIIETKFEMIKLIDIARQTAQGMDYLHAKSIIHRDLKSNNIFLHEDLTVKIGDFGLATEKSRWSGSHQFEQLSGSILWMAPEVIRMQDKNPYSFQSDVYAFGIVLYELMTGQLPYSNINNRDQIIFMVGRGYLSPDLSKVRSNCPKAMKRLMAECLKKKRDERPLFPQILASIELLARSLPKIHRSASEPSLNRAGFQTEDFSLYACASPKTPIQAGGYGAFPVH
Assay: Kinase test B-Raf (V600E)
Assay type: biochemical
Settings: compound concentration 2 μM; 100% = no inhibition, 0% = total inhibition; read-out: % CTL (residual activity of the enzyme relative to DMSO control)
Description: In a dilution series 10 μL of test substance solution are placed in a multiwell plate. The dilution series is selected so that generally a range of concentrations of 2 μM to 0.119 nM or 0.017 nM is covered. […] After the addition of 200 μL Enhancement Solution (Perkin Elmer, #4001-0010/#1244-105) the mixture is shaken for 10 min at RT and then measured in a Wallac Victor using the program “Delfia Time Resolved Fluorescence (Europium)”. […]
recorded.endpoint: remaining activity at 2 µM (%)

[[record]]
compound = "Cc1ncc(C(=O)Nc2cc(N3CCN(C)CC3)c(C)c(C(F)(F)F)c2)cc1-n1cc(-c2cncnc2)nn1 [Example I-67]"
target_entity = "B-Raf (V600E)-kinase (Homo sapiens, UniProt P15056, V600E)"
display_unit = "%"
measured_number = 2.9

[[record]]
compound = "Cc1ncc(C(=O)Nc2cc(C(C)(C)C)n[nH]2)cc1-n1cc(-c2cncs2)nn1 [Example I-83]"
target_entity = "B-Raf (V600E)-kinase (Homo sapiens, UniProt P15056, V600E)"
display_unit = "%"
measured_number = 1.1

[[record]]
compound = "Cc1ncc(-c2cn(-c3cc(NC(=O)c4cc(OC(F)(F)F)cc(N5CCN(C)CC5)c4)cnc3C)nn2)s1 [XII-23]"
target_entity = "B-Raf (V600E)-kinase (Homo sapiens, UniProt P15056, V600E)"
display_unit = "%"
measured_number = 7.2

[[record]]
compound = "Cc1ncc(NC(=O)c2cccc(C(C)(C)C#N)c2)cc1-n1cc(-c2cncc(NCCN(C)C)c2)nn1 [XII-52]"
target_entity = "B-Raf (V600E)-kinase (Homo sapiens, UniProt P15056, V600E)"
display_unit = "%"
measured_number = 7

